molecules and their reported IC50
Biological target: UniProt:P16234
Assay: Inhibition of PDGFRα kinase activity (HTRF KinEASE-TK)
Conditions: biochemical, HTRF KinEASE-TK

Recorded IC50, per entry:
Molecule: Cc1cc(F)c(C(=O)Nc2ccc(C(F)C(F)(F)F)cn2)cc1NC(=O)c1cnc(N)s1 (centres unmarked)
IC50: 100 to 1000 nM
//
Molecule: Cc1ncc(C(=O)Nc2cc(C(=O)Nc3cnc(N4CCC[C@@H]4C)cn3)c(F)cc2C)s1
IC50: > 1000 nM
//
Molecule: Cc1cc(F)c(C(=O)Nc2ccc(COC(F)F)cn2)cc1NC(=O)c1cnc(N)s1
IC50: > 1000 nM

Consider COc1ccc(NC(=O)c2cc(NC(=O)c3cnc(N)s3)c(C)cc2F)c(F)c1 . Its measured IC50 is 100 to 1000 nM

Consider Cc1ncc(C(=O)Nc2cc(C(=O)Nc3cnc(OCC(F)(F)F)cn3)c(F)cc2C)s1 . Its measured IC50 is > 1000 nM

Consider Cc1ncc(C(=O)Nc2cc(C(=O)Nc3cnc(OCC4CC4)cn3)c(F)cc2C)s1 . Its measured IC50 is > 1000 nM

Consider Cc1cc(F)c(C(=O)Nc2ccn([C@@H]3CCOC3)n2)cc1NC(=O)c1cnc(N)s1 . Its measured IC50 is > 1000 nM

Consider Cc1cc(F)c(C(=O)Nc2cc(C3CC3)ccn2)cc1NC(=O)c1cnc(N)s1 . Its measured IC50 is < 100 nM

###

compounds and their reported IC50
Target: PDGFRα (Homo sapiens (Human), UniProt P16234)
Sequence (P16234 24-1089): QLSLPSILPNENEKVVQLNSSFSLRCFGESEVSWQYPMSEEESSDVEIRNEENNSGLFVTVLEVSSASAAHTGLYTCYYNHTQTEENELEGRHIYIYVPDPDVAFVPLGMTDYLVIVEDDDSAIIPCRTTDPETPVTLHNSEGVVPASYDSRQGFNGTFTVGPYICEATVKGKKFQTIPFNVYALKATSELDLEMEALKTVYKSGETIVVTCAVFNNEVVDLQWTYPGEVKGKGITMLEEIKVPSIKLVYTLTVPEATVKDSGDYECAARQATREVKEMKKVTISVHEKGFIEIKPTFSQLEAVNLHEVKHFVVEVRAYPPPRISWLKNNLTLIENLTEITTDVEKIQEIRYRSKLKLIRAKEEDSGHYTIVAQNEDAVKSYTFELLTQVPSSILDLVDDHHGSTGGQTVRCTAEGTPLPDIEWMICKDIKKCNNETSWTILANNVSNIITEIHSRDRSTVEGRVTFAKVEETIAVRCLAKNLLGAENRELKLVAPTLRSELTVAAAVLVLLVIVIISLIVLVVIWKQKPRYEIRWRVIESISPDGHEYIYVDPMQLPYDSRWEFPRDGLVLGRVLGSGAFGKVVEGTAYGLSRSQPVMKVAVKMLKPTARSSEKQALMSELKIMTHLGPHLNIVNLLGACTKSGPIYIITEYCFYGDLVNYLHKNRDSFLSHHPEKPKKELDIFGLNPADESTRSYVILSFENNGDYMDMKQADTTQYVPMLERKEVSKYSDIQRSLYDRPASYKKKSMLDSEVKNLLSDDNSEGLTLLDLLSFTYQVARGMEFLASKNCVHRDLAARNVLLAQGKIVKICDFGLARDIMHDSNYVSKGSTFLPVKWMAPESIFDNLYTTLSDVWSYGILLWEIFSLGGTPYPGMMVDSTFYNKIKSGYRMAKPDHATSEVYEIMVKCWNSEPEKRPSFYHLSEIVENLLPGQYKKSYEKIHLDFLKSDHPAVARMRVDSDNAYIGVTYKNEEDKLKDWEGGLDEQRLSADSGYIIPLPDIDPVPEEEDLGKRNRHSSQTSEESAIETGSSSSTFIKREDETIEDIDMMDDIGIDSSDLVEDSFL
Experiment: Inhibition of PDGFRα kinase activity (HTRF KinEASE-TK)
Settings: biochemical, HTRF KinEASE-TK

Recorded IC50, per entry:
Compound: CO[C@H](C)c1ccc(NC(=O)c2cc(NC(=O)c3cnc(N)s3)c(C)cc2F)nc1 [Example 256]
Result: > 1 µM
--
Compound: Cc1cc(F)c(C(=O)N[C@@H]2C[C@@H]2F)cc1NC(=O)c1cnc(N)s1 [Example 137]
Result: 0.1 to 1 µM
--
Compound: Cc1cc(F)c(C(=O)Nc2ccc(OC(C)C)nn2)cc1NC(=O)c1cnc(N)s1 [Example 259]
Result: 0.1 to 1 µM
--
Compound: Cc1ncc(C(=O)Nc2cc(C(=O)Nc3ccc(C4CC4)nn3)c(F)cc2C)s1 [Example 35]
Result: > 1 µM
--
Compound: Cc1ncc(C(=O)Nc2cc(C(=O)Nc3cnc(N4CCC[C@H]4C)cn3)c(F)cc2C)s1 [Example 84]
Result: > 1 µM
--
Compound: Cc1cc(F)c(C(=O)Nc2ccc(O[C@@H]3CCOC3)cn2)cc1NC(=O)c1cnc(N)s1 [Example 198]
Result: > 1 µM

Consider Cc1ncc(C(=O)Nc2cc(C(=O)Nc3ccc(C(F)F)cn3)c(F)cc2C)s1 [Example 16] . Its measured IC50 is > 1 µM

Consider Cc1ncc(C(=O)Nc2cc(C(=O)Nc3ccc(OC(F)(F)F)cn3)c(F)cc2C)s1 [Example 39] . Its measured IC50 is > 1 µM

Consider Cc1cc(F)c(C(=O)Nc2ccn(CCO)n2)cc1NC(=O)c1cnc(N)s1 [Example 144] . Its measured IC50 is > 1 µM

Consider Cc1cc(F)c(C(=O)Nc2ccn(CC3CC3)n2)cc1NC(=O)c1cnc(N)s1 [Example 151] . Its measured IC50 is 0.1 to 1 µM

Consider Cc1cc(F)c(C(=O)Nc2ccc(CN3CCOCC3)cn2)cc1NC(=O)c1cnc(N)s1 [Example 248] . Its measured IC50 is > 1 µM

Consider Cc1cc(F)c(C(=O)N[C@H]2C[C@@H]2F)cc1NC(=O)c1cnc(N)s1 [Example 138] . Its measured IC50 is 0.1 to 1 µM

Consider Cc1ncc(C(=O)Nc2cc(C(=O)NCc3ccc(OC(F)(F)F)c(F)c3)c(F)cc2C)s1 [Example 269] . Its measured IC50 is > 1 µM

Consider Nc1ncc(C(=O)Nc2cc(C(=O)Nc3ccc(OC4CC4)cn3)c(F)cc2F)s1 [Example 222] . Its measured IC50 is > 1 µM
